# Target of assay: Peroxisome proliferator-activated receptor gamma (Homo sapiens) (UniProt P37231)
# Sequence (P37231 whole entry): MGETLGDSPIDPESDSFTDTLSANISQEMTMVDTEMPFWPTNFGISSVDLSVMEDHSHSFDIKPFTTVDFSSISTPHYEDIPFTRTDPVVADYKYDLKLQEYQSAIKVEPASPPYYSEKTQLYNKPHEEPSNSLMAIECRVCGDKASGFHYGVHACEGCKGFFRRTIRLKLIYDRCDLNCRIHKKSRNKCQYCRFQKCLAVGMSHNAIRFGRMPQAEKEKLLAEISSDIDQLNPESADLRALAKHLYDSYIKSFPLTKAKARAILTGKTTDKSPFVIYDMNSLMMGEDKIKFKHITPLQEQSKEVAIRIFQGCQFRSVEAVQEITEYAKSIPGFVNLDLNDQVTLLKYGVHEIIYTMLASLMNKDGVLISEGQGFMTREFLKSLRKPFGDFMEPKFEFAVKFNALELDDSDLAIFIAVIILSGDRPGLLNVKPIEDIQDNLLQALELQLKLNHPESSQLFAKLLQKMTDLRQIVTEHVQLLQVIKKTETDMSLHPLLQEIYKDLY
# Measurement notes: Minimum effective concentration required to activate Peroxisome proliferator activated receptor gamma (PPAR gamma)
Hi there, I'd appreciate the recorded MEC for every entry that follows.
# number only, unit µM dropped from output

Please look at this compound and report its MEC: "CCOC(=O)COc1c(Cl)c(C)c(C=O)c(OC)c1C/C=C(C)/C=C/[C@@]1(C)[C@H](C)CCC(=O)[C@@H]1C"
3

Please look at this compound and report its MEC: "COc1c(C=O)c(C)c(Cl)c(O)c1C/C=C(C)/C=C/[C@@]1(C)[C@H](C)CCC(=O)[C@@H]1C"
10

Please look at this compound and report its MEC: "COc1c(C=O)c(C)c(Cl)c(O)c1C/C=C(\C)CC/C=C(\C)[C@@H]1CC(=O)C(C)(C)O1"
30

Please look at this compound and report its MEC: "COc1c(C=O)c(C)c(Cl)c(OC(=O)c2cccnc2)c1C/C=C(C)/C=C/[C@@]1(C)[C@H](C)CCC(=O)[C@@H]1C"
100

Please look at this compound and report its MEC: "COc1c(C=O)c(C)c(Cl)c(OCC(=O)O)c1C/C=C(C)/C=C/[C@@]1(C)[C@H](C)CCC(=O)[C@@H]1C"
3

---

# Target of assay: Estrogen receptor (Homo sapiens)
# Sequence (P03372 whole entry): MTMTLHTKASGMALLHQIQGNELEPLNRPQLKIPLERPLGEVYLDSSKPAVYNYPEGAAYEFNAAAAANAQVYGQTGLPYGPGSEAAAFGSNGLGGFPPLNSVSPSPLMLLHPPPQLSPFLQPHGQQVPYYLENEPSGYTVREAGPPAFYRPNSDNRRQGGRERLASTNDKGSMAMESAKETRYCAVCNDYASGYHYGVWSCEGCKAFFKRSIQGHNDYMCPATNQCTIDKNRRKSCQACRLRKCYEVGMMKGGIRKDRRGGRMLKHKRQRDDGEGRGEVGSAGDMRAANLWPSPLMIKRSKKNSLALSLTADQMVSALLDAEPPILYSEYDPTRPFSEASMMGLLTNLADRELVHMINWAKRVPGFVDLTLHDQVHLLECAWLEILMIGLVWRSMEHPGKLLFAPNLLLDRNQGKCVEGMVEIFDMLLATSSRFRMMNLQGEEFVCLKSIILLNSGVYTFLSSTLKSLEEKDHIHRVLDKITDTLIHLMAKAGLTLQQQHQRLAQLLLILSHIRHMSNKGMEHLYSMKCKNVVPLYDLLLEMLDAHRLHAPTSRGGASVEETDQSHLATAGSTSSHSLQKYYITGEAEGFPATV
# Measurement notes: Minimum effective concentration required to activate Estrogen receptor 1 (ER alpha); Not detected
Reported endpoint: MEC

C/C(=C\Cc1c(O)c(Cl)c(C)c(C=O)c1O)CC/C=C(\C)C1=CC(=O)C(C)(C)O1 Not Active
COc1c(C=O)c(C)c(Cl)c(O)c1C/C=C(C)/C=C/[C@@]1(C)[C@H](C)CCC(=O)[C@@H]1C Not Active
C/C(=C\Cc1c(O)c(Cl)c(C)c(C=O)c1O)CC/C=C(\C)[C@@H]1CC(=O)C(C)(C)O1 Not Active

---

# Target of assay: Nuclear receptor subfamily 1 group I member 2 (Homo sapiens, UniProt O75469)
# Sequence (O75469 whole entry): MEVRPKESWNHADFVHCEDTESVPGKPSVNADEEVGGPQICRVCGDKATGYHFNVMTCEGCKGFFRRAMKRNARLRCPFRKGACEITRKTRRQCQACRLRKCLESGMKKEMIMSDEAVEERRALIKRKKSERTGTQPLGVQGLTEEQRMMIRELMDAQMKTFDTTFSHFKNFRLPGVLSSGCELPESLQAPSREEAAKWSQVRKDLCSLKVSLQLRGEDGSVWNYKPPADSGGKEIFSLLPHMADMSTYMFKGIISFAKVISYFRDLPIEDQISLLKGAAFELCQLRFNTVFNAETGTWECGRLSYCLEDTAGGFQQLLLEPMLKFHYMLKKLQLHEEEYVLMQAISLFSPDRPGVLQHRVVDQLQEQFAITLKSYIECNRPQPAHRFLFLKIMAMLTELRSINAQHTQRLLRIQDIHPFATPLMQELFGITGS
# Measurement notes: Minimum effective concentration required to activate pregnane X receptor (PXR)
Reported endpoint: MEC (µM)
# number only, unit µM dropped from output

Please look at this compound and report its MEC: "CC(/C=C/[C@@]1(C)[C@H](C)CCC(=O)[C@@H]1C)=C\Cc1c(O)c(C=O)c(C)c(Cl)c1OC(=O)c1cccnc1"
3

Please look at this compound and report its MEC: "COc1c(Cl)c(C)c(C=O)c(O)c1C/C=C(\C)CC/C=C(\C)[C@@H]1CC(=O)C(C)(C)O1"
1

Please look at this compound and report its MEC: "COc1c(C=O)c(C)c(Cl)c(OC(C)=O)c1C/C=C(\C)CC/C=C(\C)[C@@H]1CC(=O)C(C)(C)O1"
1

Please look at this compound and report its MEC: "CC(=O)Oc1c(Cl)c(C)c(C=O)c(O)c1C/C=C(\C)CC/C=C(\C)[C@@H]1CC(=O)C(C)(C)O1"
1

Please look at this compound and report its MEC: "CCOC(=O)COc1c(Cl)c(C)c(C=O)c(OC)c1C/C=C(C)/C=C/[C@@]1(C)[C@H](C)CCC(=O)[C@@H]1C"
1

Please look at this compound and report its MEC: Cc1c(C=O)cc2c(c1Cl)OC(C)(/C=C/[C@]1(C)C(C)C(=O)CC[C@H]1C)CC2 (some centres undefined)
1

Please look at this compound and report its MEC: "C/C(=C\Cc1c(O)c(C=O)c(C)c(Cl)c1OC(=O)c1ccncc1)CC/C=C(\C)[C@@H]1CC(=O)C(C)(C)O1"
10

Please look at this compound and report its MEC: "C/C(=C\Cc1c(O)c(Cl)c(C)c(C=O)c1O)CC/C=C(\C)C1=CC(=O)C(C)(C)O1"
1

Please look at this compound and report its MEC: "CC(/C=C/[C@@]1(C)[C@H](C)CCC(=O)[C@@H]1C)=C\Cc1c(O)c(C=O)c(C)c(Cl)c1OC(=O)CCCC(=O)O"
1

Please look at this compound and report its MEC: CC(/C=C/[C@@]1(C)[C@H](C)CCC(=O)[C@@H]1C)=C\Cc1c(O)c(Cl)c(C)c(C=O)c1O [ASCOCHLORIN]
1

Please look at this compound and report its MEC: "COc1c(C=O)c(C)c(Cl)c(O)c1C/C=C(C)/C=C/[C@@]1(C)[C@H](C)CCC(=O)[C@@H]1C"
1

Please look at this compound and report its MEC: "COc1c(Cl)c(C)c(C=O)c(O)c1C/C=C(C)/C=C/[C@@]1(C)[C@H](C)CCC(=O)[C@@H]1C"
1

Please look at this compound and report its MEC: "CC(/C=C/[C@@]1(C)[C@H](C)CCC(=O)[C@@H]1C)=C\Cc1c(O)c(C=O)c(C)c(Cl)c1OC(=O)c1ccncc1"
1

Please look at this compound and report its MEC: "C/C(=C\Cc1c(O)c(C=O)c(C)c(Cl)c1OC(=O)c1cccnc1)CC/C=C(\C)[C@@H]1CC(=O)C(C)(C)O1"
10

Please look at this compound and report its MEC: "COc1c(C=O)c(C)c(Cl)c(OCC(=O)O)c1C/C=C(C)/C=C/[C@@]1(C)[C@H](C)CCC(=O)[C@@H]1C"
3

Please look at this compound and report its MEC: C/C(=C\Cc1c(O)c(Cl)c(C)c(C=O)c1O)CC/C=C(\C)[C@@H]1CC(=O)C(C)(C)O1 [ASCOFURANONE]
3

Please look at this compound and report its MEC: Cc1c(Cl)c2c(c(O)c1C=O)CC(CC(C)(O)/C=C/[C@@]1(C)[C@H](C)CCC3(OCCO3)[C@@H]1C)O2 (some centres undefined)
3

Please look at this compound and report its MEC: "COc1c(Cl)c(C)c(C(=O)O)c(OC)c1C/C=C(C)/C=C/[C@@]1(C)[C@H](C)CCC(=O)[C@@H]1C"
1

Please look at this compound and report its MEC: COc1c(Cl)c(C)c(C=O)c(OC)c1CC1OC1(C)/C=C/[C@@]1(C)[C@H](C)CCC(=O)[C@@H]1C (some centres undefined)
1

---

Hi there, I'd appreciate the recorded MEC for every entry that follows.
# Target of assay: Nuclear receptor subfamily 1 group I member 2 (Homo sapiens, UniProt O75469)
# Measurement notes: Minimum effective concentration required to activate pregnane X receptor (PXR)
# number only, unit µM dropped from output

Retrieve MEC on Nuclear receptor subfamily 1 group I member 2 (Homo sapiens, UniProt O75469); query Cc1c(Cl)c(O)c2c(c1C=O)OC(C)(/C=C/[C@]1(C)C(C)C(=O)CC[C@H]1C)CC2 (some centres not stated)
3

Retrieve MEC on Nuclear receptor subfamily 1 group I member 2 (Homo sapiens, UniProt O75469); query "C/C(=C\Cc1c(O)c(C=O)c(C)c(Cl)c1OCC(=O)O)CC/C=C(\C)[C@@H]1CC(=O)C(C)(C)O1"
30

Retrieve MEC on Nuclear receptor subfamily 1 group I member 2 (Homo sapiens, UniProt O75469); query "C/C(=C\Cc1c(O)c(C=O)c(C)c(Cl)c1OC(=O)CCCC(=O)O)CC/C=C(\C)[C@@H]1CC(=O)C(C)(C)O1"
10

Retrieve MEC on Nuclear receptor subfamily 1 group I member 2 (Homo sapiens, UniProt O75469); query "CC(/C=C/[C@@]1(C)[C@H](C)CCC(=O)[C@@H]1C)=C\Cc1c(O)c(C=O)c(C)c(Cl)c1OCC(=O)O"
30

Retrieve MEC on Nuclear receptor subfamily 1 group I member 2 (Homo sapiens, UniProt O75469); query "CC(=O)Oc1c(Cl)c(C)c(C(=O)O)c(OC(C)=O)c1C/C=C(C)/C=C/[C@@]1(C)[C@H](C)CCC(=O)[C@@H]1C"
1

Retrieve MEC on Nuclear receptor subfamily 1 group I member 2 (Homo sapiens, UniProt O75469); query "COc1c(C=O)c(C)c(Cl)c(OC(=O)c2cccnc2)c1C/C=C(C)/C=C/[C@@]1(C)[C@H](C)CCC(=O)[C@@H]1C"
10

Retrieve MEC on Nuclear receptor subfamily 1 group I member 2 (Homo sapiens, UniProt O75469); query "COc1c(C=O)c(C)c(Cl)c(O)c1C/C=C(\C)CC/C=C(\C)[C@@H]1CC(=O)C(C)(C)O1"
1
